Assay system Ornithine decarboxylase (Homo sapiens, UniProt P11926); read-out recorded as pKd.
Note: pKd values are expressed as the negative base-10 logarithm of concentration in M.

Would you please look over these solved cases?
NCCC[C@H](NN)C(=O)O [ALPHA-HYDRAZINE ORNITHINE]: 6.30
NCCC[C@@](N)(CF)C(=O)O: 4.12

Quote pKd with test system Ornithine decarboxylase (Homo sapiens, UniProt P11926) for "NCCC[C@H](N)C(=O)O"
3.60

Quote pKd with test system Ornithine decarboxylase (Homo sapiens, UniProt P11926) for "N[C@@H](CCCNC(=O)CCl)C(=O)O"
2.60

====

Experiment: Toxicity in ip dosed Mus musculus CD1 (mouse) assessed as mortality
Format: organism-based
Conditions: in vivo
observable: LD50 (mg/kg)
Your answer is read as mg/kg, so omit the unit and give the number.

Write down LD50 measured for item "N[C@@H](CCCNC(=O)CCl)C(=O)O"
381
